# test-details: Unbound fraction in dog plasma
# Assay type: ADME, cell-free, Canis lupus familiaris
result-type: fraction unbound
Respond using a number only.

QUERY: Write down fraction unbound measured for item `COc1nnc2ccc(N3CCC(c4ccc(OCCN5[C@H](C)CN(C(C)=O)C[C@@H]5C)cc4)CC3)nn12`
RESULT: 0.16

QUERY: Write down fraction unbound measured for item `COc1nnc2ccc(N3CCC(c4ccc(OCCN5CCN(C)C(=O)[C@H]5C)cc4)CC3)nn12`
RESULT: 0.24

QUERY: Write down fraction unbound measured for item `COc1nnc2ccc(N3CCC(c4ccc(N5CC(CN6CCN(C)C(=O)[C@H]6C)C5)cc4)CC3)nn12`
RESULT: 0.27

QUERY: Write down fraction unbound measured for item `COc1nnc2ccc(N3CCC(c4ccc(CCN5CCN(C)C(=O)[C@H]5C)cc4)CC3)nn12`
RESULT: 0.24

QUERY: Write down fraction unbound measured for item `C[C@@H]1C(=O)N(C)CCN1CCOc1ccc(C2CCN(c3ccc4nnc(N(C)C)n4n3)CC2)cc1`
RESULT: 0.09
